# measured on: E. eligens GUS (Lachnospira eligens)
test readout: pIC50
Answer as the number alone; pIC50 is minus log10 of concentration in mol/L.

Look up pIC50 with E. eligens GUS (Lachnospira eligens) for this molecule: C1CCc2c(c(N3CCOCC3)nc3sc4c(N5CCNCC5)nnnc4c23)C1 5.51

###

# measured on: R. hominis 3 GUS (Roseburia hominis)
# Sequence (A0A395V874 1-734): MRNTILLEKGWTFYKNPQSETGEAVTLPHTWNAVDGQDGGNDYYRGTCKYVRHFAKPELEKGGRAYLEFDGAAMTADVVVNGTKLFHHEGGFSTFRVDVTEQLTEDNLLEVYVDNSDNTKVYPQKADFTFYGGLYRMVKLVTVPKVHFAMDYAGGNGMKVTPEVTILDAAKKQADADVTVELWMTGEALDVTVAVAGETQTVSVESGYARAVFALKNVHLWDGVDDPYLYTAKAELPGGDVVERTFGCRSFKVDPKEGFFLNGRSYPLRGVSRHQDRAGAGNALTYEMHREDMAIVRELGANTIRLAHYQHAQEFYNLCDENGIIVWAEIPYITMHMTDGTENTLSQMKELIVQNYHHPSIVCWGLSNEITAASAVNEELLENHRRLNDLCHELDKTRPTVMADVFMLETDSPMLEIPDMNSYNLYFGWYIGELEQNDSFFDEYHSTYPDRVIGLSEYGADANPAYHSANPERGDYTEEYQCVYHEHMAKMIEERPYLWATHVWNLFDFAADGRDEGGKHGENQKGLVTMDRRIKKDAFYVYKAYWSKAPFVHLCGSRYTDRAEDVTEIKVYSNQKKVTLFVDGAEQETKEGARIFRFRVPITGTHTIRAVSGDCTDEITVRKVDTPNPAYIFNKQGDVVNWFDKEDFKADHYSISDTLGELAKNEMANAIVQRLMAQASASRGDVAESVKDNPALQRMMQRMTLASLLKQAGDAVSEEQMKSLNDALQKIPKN
pIC50: −log10 of the molar value.
test readout: pIC50

Look up pIC50 with R. hominis 3 GUS (Roseburia hominis) for this compound: C1CCc2c(c(N3CCOCC3)nc3sc4c(N5CCNCC5)nnnc4c23)C1 < 4.00

###

# measured on: R. gnavus 3 GUS (Mediterraneibacter gnavus)
test readout: pIC50
Answer as the number alone; pIC50 is minus log10 of concentration in mol/L.

Look up pIC50 with R. gnavus 3 GUS (Mediterraneibacter gnavus) for this compound: C1CCc2c(c(N3CCOCC3)nc3sc4c(N5CCNCC5)nnnc4c23)C1 5.43

Where do these numbers come from? They come from paper PMC8748916.
